# Test system: SK-MEL-5
# test-protocol: NCI tumour cell line growth inhibition, 48 h
The source made the active and inactive calls. Rule as the data show it: active = GI50 up to about 1.1 µM and inactive = higher.
Reported GI50 values for a set of compounds
measurement-label: GI50

| compound | reading |
| --- | --- |
| CCOC(=O)C1CC(C(=O)c2ccccc2)N2c3ccccc3-c3ccccc3C12 (stereo not given) | 45.1 µM (inactive) |
| CN(C)c1ccc(C=C2C(=O)NC(=S)NC2=O)c2ccccc12 | > 100 µM (inactive) |
| Cn1cc(C(=O)C[n+]2ccccc2)c2ccccc21 | > 100 µM (inactive) |
| CCOc1ccc(N/C(=C(/C(Cl)=C(/Cl)N2CCCCC2)[N+](=O)[O-])n2nnc3ccccc32)cc1 | 15.6 µM (inactive) |
| C/C(=N\Nc1ccccc1)C(CN(C)C)C(c1ccccc1)c1c(O)c2ccccc2oc1=O (stereo not given) | > 100 µM (inactive) |
| N=C(N)NS(=O)(=O)c1ccc(NC(=O)c2ccc3nc4ccccc4c(Nc4ccc(S(=O)(=O)N=C(N)N)cc4)c3c2)cc1 | > 100 µM (inactive) |
| CN(Cc1cnc2c(N)nc(N)nc2n1)c1ccc(Cl)cc1 | > 100 µM (inactive) |
| Cc1cc(N(CCC#N)CCC#N)ccc1/C(Sc1ccccc1)=C(\NC(=O)/C=C/c1ccccc1)C(=O)Sc1ccccc1 | 2.77 µM (inactive) |
| O=C1/C(=C/c2ccco2)N=C2Sc3c([nH]cnc3=O)N12 | > 100 µM (inactive) |
| BrC/C=C/C[P+](c1ccccc1)(c1ccccc1)c1ccccc1 | 11.1 µM (inactive) |
| Oc1ccc(CNCc2ccccc2)c2cccnc12 | 0.191 µM (active) |
| c1ccc2c(c1)ccc1nc3ccccn3c12 | 89.7 µM (inactive) |
| CC[C@@]1(O)C(=O)OCc2c1cc1n(c2=O)Cc2c-1nc1ccccc1c2Cl | < 0.0141 µM (active) |
| O=C1c2ccccc2-c2ccc(O)cc21 | 19.4 µM (inactive) |
| CC(C)(C)c1cc(C(C)(C)C)c2c(c1O)OC(=O)CS2 | 2.88 µM (inactive) |

Data origin, for the record: ChEMBL document CHEMBL1201862
